Entries with their measured IC50, system Human autotaxin enzyme (Homo sapiens, UniProt Q13822):

In the examples that follow, each entry is paired with its recorded IC50.
Q: Data request, read-out IC50, for CCCCC1CN(c2ccc(CCC(=O)O)cc2)C(=O)c2cc(-c3ccc(Cl)cc3)nn21 (centres unmarked)
A: ≥ 1000 nM

Q: Quick one: IC50 for CCCCCC1CN(Cc2cccc(C(=O)O)n2)C(=O)c2cc(-c3ccc(Cl)cc3)nn21 (centres unmarked) ?
A: < 10 nM

Q: Endpoint output: IC50 of CCCCCC1CN(CC(=O)N2CCC(N(C)C)C2)C(=O)c2cc(-c3ccc(Cl)cc3)nn21 (centres unmarked) . Value?
A: ≥ 1000 nM

Further cases:
Q: Which IC50 is listed for CCCCCC1CN(Cc2ccccc2C)C(=O)c2cc(-c3ccc(Cl)cc3)nn21 (centres unmarked) ?
A: ≥ 1000 nM

Q: # input molecule: CCCCC1CN(Cc2ccc(C#N)cc2)C(=O)c2cc(-c3ccc(Cl)cc3CO)nn21 (centres unmarked) ; wanted: its IC50
A: 10 to 100 nM

###

# Study target: Human autotaxin enzyme (Homo sapiens)
Reported IC50 values follow for various molecules

Q: IC50 of CCCCC1CN(Cc2ccc(C#N)cc2)C(=O)c2cc(-c3ccc(Cl)cc3NC(C)=O)nn21 (stereo not drawn) on Human autotaxin enzyme (Homo sapiens)?
A: 0.01 to 0.1 µM

Q: // lookup IC50 | system=Human autotaxin enzyme (Homo sapiens) | key= CCCOCC1CN(Cc2ccc(C#N)cc2)C(=O)c2cc(-c3ccc(Cl)cc3)nn21 (stereo not drawn)
A: 0.01 to 0.1 µM

Q: Human autotaxin enzyme (Homo sapiens) / IC50 / CC(=O)Nc1cc(OC(F)(F)F)ccc1-c1cc2n(n1)[C@@H](C)CN(C[C@H]1CNC(=O)O1)C2=O : value?
A: < 0.01 µM

Q: For Human autotaxin enzyme (Homo sapiens), provide IC50 of O=C(O)c1cccc(CN2CC(COCC(F)(F)F)n3nc(-c4ccc(Cl)cc4)cc3C2=O)c1 (stereo not drawn) please.
A: < 0.01 µM

Q: Report IC50 for CCCCC1CN(CC(=O)N[C@@H]2CCC[C@H]2O)C(=O)c2cc(-c3ccc(Cl)cc3)nn21 (stereo partly drawn) tested on Human autotaxin enzyme (Homo sapiens).
A: 0.1 to 1 µM

New cases:
Q: For the record CCCCC1CN(CNC(=O)CO)C(=O)c2cc(-c3ccc(Cl)cc3)nn21 (stereo not drawn) , what value of IC50 is listed for Human autotaxin enzyme (Homo sapiens)?
A: 0.1 to 1 µM

Q: Give IC50 (Human autotaxin enzyme (Homo sapiens)) of the following molecule: CC(=O)Nc1cc(C#N)ccc1-c1cc2n(n1)C(CC(F)(F)F)CN(Cc1ccc(C#N)cc1)C2=O (stereo not drawn)
A: 0.01 to 0.1 µM

Q: What measured IC50 is associated with CCOC(=O)CN1CC(C(C)C)n2nc(-c3ccc(Cl)cc3)cc2C1=O (stereo not drawn) on Human autotaxin enzyme (Homo sapiens)?
A: ≥ 1 µM

Q: Lab request: please report IC50 under test system Human autotaxin enzyme (Homo sapiens) for CCOC(=O)C1CCN(C(=O)CN2C(=O)c3cc(-c4ccc(Cl)cc4)nn3[C@@H]3CCC[C@@H]32)CC1
A: ≥ 1 µM

Q: Can you look up IC50 on Human autotaxin enzyme (Homo sapiens) for N#Cc1ccc(CN2CC(COCc3ccccc3)n3nc(-c4ccc(Cl)cc4)cc3C2=O)cc1 (stereo not drawn) ?
A: ≥ 1 µM

Q: # returns recorded IC50 (system: Human autotaxin enzyme (Homo sapiens)) for CCCCC1CN(Cc2ccc(C#N)cc2)C(=O)c2cc(-c3ccc(Cl)cc3C=O)nn21 (stereo not drawn)
A: 0.01 to 0.1 µM

Q: Kindly state the measured IC50 obtained for CCCCC1CN(CC(=O)N2CCCC[C@H]2C)C(=O)c2cc(-c3ccc(Cl)cc3)nn21 (stereo partly drawn) with Human autotaxin enzyme (Homo sapiens).
A: 0.1 to 1 µM

Q: Provide value of IC50 for this record tested with Human autotaxin enzyme (Homo sapiens): N#Cc1ccc(CN2CC3CC/C=C/CC(=O)Nc4cc(Cl)ccc4-c4cc(n3n4)C2=O)cc1 (stereo not drawn)
A: < 0.01 µM

Q: Param readout = IC50; param system = Human autotaxin enzyme (Homo sapiens); param query = CCCCC1CN(Cc2ccc(C#N)cc2)C(=O)c2cc(N3CC(c4ccccc4)C3)nn21 (stereo not drawn) ; response: value
A: ≥ 1 µM

Q: Request - read-out IC50 | tested on Human autotaxin enzyme (Homo sapiens) | molecule CCCCCC1CN(CC(=O)N2C[C@@H]3C(C(=O)O)[C@@H]3C2)C(=O)c2cc(-c3ccc(Cl)cc3)nn21 (stereo partly drawn)
A: 0.01 to 0.1 µM
